Source: patent US8470837B2

# pIC50 values compiled below
- assayed target: MEK1 (Homo sapiens, UniProt Q02750, DEL30-49/S218E/S222D)
- Sequence (Q02750 with tags, fused parts or gaps DEL30-49/S218E/S222D): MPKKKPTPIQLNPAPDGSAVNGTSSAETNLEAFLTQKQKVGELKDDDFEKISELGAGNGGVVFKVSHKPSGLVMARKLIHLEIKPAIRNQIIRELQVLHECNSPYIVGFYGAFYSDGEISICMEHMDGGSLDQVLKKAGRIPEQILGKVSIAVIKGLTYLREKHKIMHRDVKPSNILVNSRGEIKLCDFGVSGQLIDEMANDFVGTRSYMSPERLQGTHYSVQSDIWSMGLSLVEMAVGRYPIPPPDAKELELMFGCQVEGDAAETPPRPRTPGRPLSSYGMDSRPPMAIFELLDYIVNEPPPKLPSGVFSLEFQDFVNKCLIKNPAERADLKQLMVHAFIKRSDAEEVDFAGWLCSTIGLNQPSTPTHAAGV
- run description: MEK1 inhibition, fluorescence polarization assay with IMAP beads (ERK1 / FI-Erktide coupled)
pIC50: −log10 of the molar value.

Example entries and their recorded answers appear below.
compound	pIC50
Cn1c(=O)c(F)c(Nc2ccc(I)cc2F)c2c(=O)n(OC[C@H](O)CO)cnc21 [Example 28]	≥ 8.30
C#Cc1ccc(Nc2c(C)c(=O)n(C)c3ncn(C[C@H](O)CO)c(=O)c23)c(F)c1 [Example 44]	7.82 to 8.30
Cc1c(Nc2ccccc2F)c2c(=O)n(CCO)cnc2n(C)c1=O [Example 15]	≤ 7.80
CC(O)Cn1cnc2c(c(Nc3ccc(I)cc3F)cc(=O)n2C)c1=O (stereo not drawn) [Example 38]	≤ 7.80
Cc1c(Nc2ccc(Br)cc2F)c2c(=O)n(CCO)cnc2n(C)c1=O [Example 11]	≤ 7.80
Cn1c(=O)c(Cl)c(Nc2ccc(Br)cc2Cl)c2c(=O)n(CCCO)cnc21 [Example 36]	≤ 7.80
C#Cc1ccc(Nc2c(F)c(=O)n(C)c3ncn(C[C@@H](O)CO)c(=O)c23)c(F)c1 [Example 22]	≥ 8.30
Cn1c(=O)c(Cl)c(Nc2ccc(Br)cc2F)c2c(=O)n(CCCO)cnc21 [Example 34]	7.82 to 8.30
Cc1c(Nc2ccc(I)cc2F)c2c(=O)n(C(CO)CO)cnc2n(C)c1=O [Example 43]	7.82 to 8.30
C#Cc1ccc(Nc2c(F)c(=O)n(C)c3ncn(C[C@H](O)CO)c(=O)c23)c(F)c1 [Example 21]	7.82 to 8.30

Lab note: next compound to report on.
Cn1c(=O)cc(Nc2ccc(I)cc2F)c2c(=O)n(CCCO)cnc21 [Example 31] yielded pIC50 of ≥ 8.30
